molecular target: E3 ubiquitin-protein ligase NEDD4 WW4 domain (human)
Sequence (P46934 whole entry, the tested form may be a part): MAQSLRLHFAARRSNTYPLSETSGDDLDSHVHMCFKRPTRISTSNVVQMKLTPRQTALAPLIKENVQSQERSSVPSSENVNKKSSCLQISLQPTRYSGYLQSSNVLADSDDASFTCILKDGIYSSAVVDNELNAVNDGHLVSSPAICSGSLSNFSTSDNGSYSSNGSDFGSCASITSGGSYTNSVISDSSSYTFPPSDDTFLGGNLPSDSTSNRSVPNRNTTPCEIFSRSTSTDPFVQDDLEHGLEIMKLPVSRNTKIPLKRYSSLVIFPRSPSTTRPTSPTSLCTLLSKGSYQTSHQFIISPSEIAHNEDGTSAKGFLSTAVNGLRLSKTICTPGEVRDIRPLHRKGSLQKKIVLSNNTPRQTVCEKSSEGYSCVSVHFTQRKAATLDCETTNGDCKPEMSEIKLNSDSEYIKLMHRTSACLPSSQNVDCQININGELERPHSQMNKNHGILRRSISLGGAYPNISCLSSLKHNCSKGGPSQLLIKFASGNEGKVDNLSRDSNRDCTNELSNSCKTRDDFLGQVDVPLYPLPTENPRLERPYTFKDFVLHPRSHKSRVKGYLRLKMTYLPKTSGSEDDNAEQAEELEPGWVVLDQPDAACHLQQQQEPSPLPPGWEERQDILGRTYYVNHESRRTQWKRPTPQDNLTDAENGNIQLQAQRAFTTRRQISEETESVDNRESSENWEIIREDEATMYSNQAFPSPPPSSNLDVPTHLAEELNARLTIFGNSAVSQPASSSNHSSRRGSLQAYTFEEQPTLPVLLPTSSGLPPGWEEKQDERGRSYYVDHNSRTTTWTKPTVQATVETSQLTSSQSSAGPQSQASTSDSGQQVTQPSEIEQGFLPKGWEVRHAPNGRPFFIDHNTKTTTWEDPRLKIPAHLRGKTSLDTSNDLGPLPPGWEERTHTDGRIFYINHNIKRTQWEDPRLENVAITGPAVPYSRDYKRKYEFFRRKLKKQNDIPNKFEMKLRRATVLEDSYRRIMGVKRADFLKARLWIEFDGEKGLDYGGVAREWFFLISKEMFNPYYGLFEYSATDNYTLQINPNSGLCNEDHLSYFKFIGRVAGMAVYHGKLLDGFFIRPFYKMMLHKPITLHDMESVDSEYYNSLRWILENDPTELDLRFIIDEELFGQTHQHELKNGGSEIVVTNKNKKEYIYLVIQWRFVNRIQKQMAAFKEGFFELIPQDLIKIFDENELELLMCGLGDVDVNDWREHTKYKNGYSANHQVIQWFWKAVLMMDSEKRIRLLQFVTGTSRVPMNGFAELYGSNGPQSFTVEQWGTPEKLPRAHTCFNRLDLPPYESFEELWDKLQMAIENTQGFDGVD
pKd: −log10 of the molar value.
Test Readout: pKd

EPDQEPPPPYQEQVPVPVYHPTPSQ [RNF11 31-65 (Human)]    4.46
EPDQEPPPPYQEQVPV [RNF11 31-56 (Human)]    4.36
